Hello, the source for this data is paper PMC3521585, in case you need it.

test.target: human NK1 receptor (human, UniProt P25103 1-407)
Sequence (P25103 whole entry): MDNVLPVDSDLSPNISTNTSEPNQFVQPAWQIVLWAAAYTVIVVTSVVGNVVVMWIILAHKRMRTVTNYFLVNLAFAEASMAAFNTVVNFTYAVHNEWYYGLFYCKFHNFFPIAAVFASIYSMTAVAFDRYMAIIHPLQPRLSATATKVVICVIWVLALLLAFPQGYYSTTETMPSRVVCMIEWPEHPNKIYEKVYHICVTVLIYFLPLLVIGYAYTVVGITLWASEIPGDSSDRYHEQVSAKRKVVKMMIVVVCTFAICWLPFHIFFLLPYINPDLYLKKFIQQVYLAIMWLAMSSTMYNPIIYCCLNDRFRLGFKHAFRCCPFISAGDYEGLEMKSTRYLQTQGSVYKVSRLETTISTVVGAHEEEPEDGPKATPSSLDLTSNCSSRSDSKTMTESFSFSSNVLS
method: radioligand binding
Non-standard residues stand in square brackets, D forms with d. No end group written: not given here. *: point of attachment. NH(3,5-(CF3)2-benzyl) = FC(F)(F)c1cc(CN*)cc(C(F)(F)F)c1; βGlc = OC[C@H]1O[C@@H](*)[C@H](O)[C@@H](O)[C@@H]1O; Nle = CCCC[C@H](N)C(=O)O
Each entry below carries its reported LogIC50.
I only need the number, thanks.

// below: answered binders
{"binder": "Y[dA]GFS(βGlc)PLW-{NH(3,5-(CF3)2-benzyl)} [Tyr-D-Ala-Gly-Phe-Ser(Glc)-Pro-Leu-Trp-NH-3’,5’-Bzl(CF3)2]", "LogIC50": -12.2}
{"binder": "Y[dA]GF[Nle]S(βGlc)LW-{NH(3,5-(CF3)2-benzyl)} [Tyr-D-Ala-Gly-Phe-Nle-Ser(Glc)-Leu-Trp-NH-3’,5’-Bzl(CF3)2]", "LogIC50": -8.38}
{"binder": "YAGFXPLW (D-Ala at 2; norleucine (Nle) at 5 (written X); C-terminal 3’,5’-bis(trifluoromethyl)benzyl amide (Trp-NH-3’,5’-Bzl(CF3)2)) [Tyr-D-Ala-Gly-Phe-Nle-Pro-Leu-Trp-NH-3’,5’-Bzl(CF3)2]", "LogIC50": -11.6}

Query block: Quick one: LogIC50 for Y[dA]GF[Nle]PLS(βGlc)W-{NH(3,5-(CF3)2-benzyl)} [Tyr-D-Ala-Gly-Phe-Nle-Pro-Leu-Ser(Glc)-Trp-NH-3’,5’-Bzl(CF3)2] ?
Result block: -9.93
